The reader will find reported EC50 values listed item by item below.
molecular target: T1, SARS-CoV-2 RBD (SinoBiological, Cat. No. 40592-V02H) (SARS-CoV-2, UniProt P0DTC2 319-541); experiment: ELISA on RBD
T1 construct: domain: RBD

>>> value_reported("VHH-72(D61A) (VHH) VHH: QVQLQESGGGLVQAGGSLRLSCAASGRTFSEYAMGWFRQAPGKEREFVATISWSGGSTYYTASVKGRFTISRDNAKNTVYLQMNSLKPDDTAVYYCAAAGLGTVVSEWDYDYDYWGQGTQVTVSS")
"0.51 µg/mL"
>>> value_reported("VHH-72 variant expressing both S57A and D61A (VHH) VHH: QVQLQESGGGLVQAGGSLRLSCAASGRTFSEYAMGWFRQAPGKEREFVATISWSGGATYYTASVKGRFTISRDNAKNTVYLQMNSLKPDDTAVYYCAAAGLGTVVSEWDYDYDYWGQGTQVTVSS")
"0.012 µg/mL"

Shifting focus to the binder that follows.
Suppose we examine the binder VHH-72 (S57A, Y60T) (VHH) VHH: QVQLQESGGGLVQAGGSLRLSCAASGRTFSEYAMGWFRQAPGKEREFVATISWSGGATYTTDSVKGRFTISRDNAKNTVYLQMNSLKPDDTAVYYCAAAGLGTVVSEWDYDYDYWGQGTQVTVSS ; what EC50 value has been reported? 0.024 µg/mL
